Biological target: T1, Macaque 46 mer peptide (RB exon of macaque CD45RB) (macaque)
T1 construct: synthetic peptide
T1 peptide: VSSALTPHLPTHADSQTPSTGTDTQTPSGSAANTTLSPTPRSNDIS
Test: recombinant antibody on peptide

binder	binding result
AB-CD45RB-XG2-636 (antibody, human IgG2, V domains shown, recombinant human IgG2 kappa; also called sc636) VH: QVHLVESGGGLVKPGGSLRLSCAASGFTFINYYMTWIRQAPGKGLEWVSYISLSGSTIYYADSVKGRFTISRDNAKNSLFLQMNSLRAEDTAVYYCARRAATVTTFDYWGQGTLVTVSS VL: EIVMTQSPATLSVSPGERATLSCRASQSVRSNLAWSQQKPGQAPRLLIYGASTRATGIPARFSGSGSGTEFTLTISSLQSEDFAVYYCQQYNNWPLTFGGGTKVEIK	no binding
AB-CD45RB-XG2-493 (antibody, human IgG2, V domains shown, recombinant human IgG2 kappa; also called sc493) VH: QVQLVESGGGVVQPGRSLRVSCAASGFTFSNYGMHWVRQAPGKGLEWVAVIWYDGSKKFYADSVKGRFTISRDNSQNTLSLQMSSLRAEDTAVYYCARGGGDFDFWGQGTLVTVSS VL: KIVMTQSPVTLSVSPGERATLSCRACQSVSGSYLAWYQQRPGQAPRLLIYGASTRATGIPARFSGSGSGTEFTLTISSLQSEDFAVYYCQQYGKWPPLTFGGGTKVEIK	no binding
AB-CD45RB-XG2-593 (antibody, human IgG2, V domains shown, recombinant human IgG2 kappa; also called sc593) VH: QVQLVESGGGVVQPGRSLRVSCAASGFTFSNYGMHWVRQAPGKGLEWVAVIWYDGSKKFYADSVKGRFTISRDNSQNTLSLQMSSLRAEDTAVYYCARGGGDFDFWGQGTLVTVSS VL: KIVMTQSPATLSVSPGERATLSCRASQSVSGNYLAWYQQRPGQAPRLLIYGASTRATGIPARFSGSGSGTEFTLTISSLQSEDFAVYYCQQYGKWPPLTFGGGTKVEIK	no binding
